biological target: mutant MGL (Homo sapiens, UniProt Q99685, L169S/L176S); assay: MGL ThermoFluor assay - mutant; assay type: binding; conditions: compound concentration measured by qNMR, read-out: MGL mutant ThermoFluor qKd (using qNMR conc.)
Sequence (Q99685 whole entry L169S/L176S): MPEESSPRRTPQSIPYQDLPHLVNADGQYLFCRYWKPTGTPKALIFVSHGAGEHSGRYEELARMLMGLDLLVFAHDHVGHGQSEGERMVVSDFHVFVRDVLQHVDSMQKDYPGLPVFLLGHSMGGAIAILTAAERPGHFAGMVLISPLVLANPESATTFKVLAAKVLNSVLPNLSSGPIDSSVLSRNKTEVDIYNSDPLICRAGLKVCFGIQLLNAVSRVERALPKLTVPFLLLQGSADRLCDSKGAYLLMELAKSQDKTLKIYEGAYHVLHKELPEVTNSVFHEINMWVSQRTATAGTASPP
pKd: −log10 of the molar value.
observable: pKd

> print(dat)
                                   compound                           target.of.assay  observable  result
1  O=C(c1ccc2c(c1)ncn2-c1ccc(C(F)(F)F)cc1)N1CC(N2CCN(C(=O)c3cscn3)CC2)C1  mutant MGL (Homo sapiens, UniProt Q99685, L169S/L176S)         pKd    6.88
2  O=C(c1ccc2c(c1)[S+]([O-])c1ccccc1O2)N1CC(N2CCN(C(=O)c3nccs3)CC2)C1 (stereo not drawn)  mutant MGL (Homo sapiens, UniProt Q99685, L169S/L176S)         pKd    5.44

I. O=C(c1ccc2nn(Cc3ccc(F)cc3)cc2c1)N1CC(N2CCN(C(=O)c3nccs3)CC2)C1
II. COc1c(C(=O)N2CC(N3CCN(C(=O)c4nccs4)CC3)C2)sc2cc(C(F)(F)F)ccc12
III. O=C(c1ccc(CNc2cccc(Cl)c2)cc1)N1CC(N2CCN(C(=O)C(F)(F)F)CC2)C1
IV. Cc1nc2cc(C(=O)N3CC(N4CCN(C(=O)c5cscn5)CC4)C3)ccc2n1-c1ccccc1
Prompt: Arrange the 4 compounds by rising pKd, starting with the smallest. Show the ranking through the labels, in the order asked for.
Completion: III, IV, I, II
(III: 5.50, IV: 6.71, I: 7.48, II: 9.00)
